Biological target: EcoRI restriction endonuclease (UniProt P00642 1-277)
Sequence (P00642 whole entry): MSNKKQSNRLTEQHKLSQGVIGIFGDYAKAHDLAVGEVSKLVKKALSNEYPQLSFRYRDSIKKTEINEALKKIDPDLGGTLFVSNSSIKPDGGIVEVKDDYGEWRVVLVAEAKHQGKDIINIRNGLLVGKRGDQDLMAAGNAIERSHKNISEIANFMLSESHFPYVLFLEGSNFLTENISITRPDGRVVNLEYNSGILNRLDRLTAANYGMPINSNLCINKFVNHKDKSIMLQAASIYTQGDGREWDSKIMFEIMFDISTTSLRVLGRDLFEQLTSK
Experiment: nanopore rupture with qPCR
endpoint: binding signal

// below: answered binders
binder 105 bp TTAATTC (first base G to T) (dsDNA) DNA 1: TAAGTTGGGTAACGCCAGGGTTTTCCCAGTCACGACGTTGTAAAACGACGGCCAGTTAATTCGAGCTCGGTACCCGGGGATCCTCTAGAGTCGACCTGCAGGCAT DNA 2: ATGCCTGCAGGTCGACTCTAGAGGATCCCCGGGTACCGAGCTCGAATTAACTGGCCGTCGTTTTACAACGTCGTGACTGGGAAAACCCTGGCGTTACCCAACTTA , binding signal observed: 1.17 V (threshold voltage)

binder 105 bp TGACTTC (third base A to C) (dsDNA) DNA 1: TAAGTTGGGTAACGCCAGGGTTTTCCCAGTCACGACGTTGTAAAACGACGGCCAGTGACTTCGAGCTCGGTACCCGGGGATCCTCTAGAGTCGACCTGCAGGCAT DNA 2: ATGCCTGCAGGTCGACTCTAGAGGATCCCCGGGTACCGAGCTCGAAGTCACTGGCCGTCGTTTTACAACGTCGTGACTGGGAAAACCCTGGCGTTACCCAACTTA , binding signal observed: 1.11 V (threshold voltage)

binder 105 bp TGCATTC (second base A to C) (dsDNA) DNA 1: TAAGTTGGGTAACGCCAGGGTTTTCCCAGTCACGACGTTGTAAAACGACGGCCAGTGCATTCGAGCTCGGTACCCGGGGATCCTCTAGAGTCGACCTGCAGGCAT DNA 2: ATGCCTGCAGGTCGACTCTAGAGGATCCCCGGGTACCGAGCTCGAATGCACTGGCCGTCGTTTTACAACGTCGTGACTGGGAAAACCCTGGCGTTACCCAACTTA , binding signal observed: 0.87 V (threshold voltage)

binder 105 bp cognate TGAATTC (dsDNA) DNA 1: TAAGTTGGGTAACGCCAGGGTTTTCCCAGTCACGACGTTGTAAAACGACGGCCAGTGAATTCGAGCTCGGTACCCGGGGATCCTCTAGAGTCGACCTGCAGGCAT DNA 2: ATGCCTGCAGGTCGACTCTAGAGGATCCCCGGGTACCGAGCTCGAATTCACTGGCCGTCGTTTTACAACGTCGTGACTGGGAAAACCCTGGCGTTACCCAACTTA , binding signal observed: 2.16 V (threshold voltage)

More entries:
binder 105 bp AGAATTC (5' flank T to A) (dsDNA) DNA 1: TAAGTTGGGTAACGCCAGGGTTTTCCCAGTCACGACGTTGTAAAACGACGGCCAGAGAATTCGAGCTCGGTACCCGGGGATCCTCTAGAGTCGACCTGCAGGCAT DNA 2: ATGCCTGCAGGTCGACTCTAGAGGATCCCCGGGTACCGAGCTCGAATTCTCTGGCCGTCGTTTTACAACGTCGTGACTGGGAAAACCCTGGCGTTACCCAACTTA , binding signal observed: 1.62 V (threshold voltage)
